- System: EKVX NSCLC
- PROTOCOL: NCI-60 one-dose screen, 48 h (100 = growth as untreated, 0 = no growth, -100 = all killed)
- TEST_CONDITIONS: 10 µM unless noted
Compounds without any hit were thinned out: in the full panel of roughly 83,000, 20% have a hit.
OBSERVATION_TYPE: growth (%)

[[record]]
compound = "C#Cc1ccc(NC(=O)Cc2ccc(/C=C/C(=O)c3nccn3C)cc2)cc1"
unit_of_measure = "%"
recorded_number = 78.4

[[record]]
compound = "O=C1c2cccnc2C(=O)c2c1c(C(=O)OCCCN1CCOCC1)c1ccccn21"
unit_of_measure = "%"
recorded_number = 19.6

[[record]]
compound = "COc1ccc(C2CC(=O)Oc3c(OC)c4c(c(OC)c32)OCO4)cc1 (stereo not given)"
unit_of_measure = "%"
recorded_number = 101

[[record]]
compound = "COC(=O)c1ccc(-n2cc(CCCOS(=O)(=O)c3ccc(F)cc3)nn2)cc1"
unit_of_measure = "%"
recorded_number = 101

[[record]]
compound = "C#C[C@]1(O)CC[C@H]2[C@@H]3CC=C4c5sc(-c6ccccc6)nc5CC[C@]4(C)[C@H]3CC[C@@]21C"
unit_of_measure = "%"
recorded_number = 92.8


* * *

- Test system: NCI-H460 lung
- PROTOCOL: NCI-60 one-dose screen, 48 h (100 = growth as untreated, 0 = no growth, -100 = all killed)
- TEST_CONDITIONS: 10 µM unless noted
This is part of a sample that, as a whole, favours compounds with a hit. Of some 83,000 tested, about 20% had one in any assay. Calls of active or inactive are those of the source. Rule for the calls: active = growth percent below 10; inactive = the rest.
Quick reference for growth among some molecules
OBSERVATION_TYPE: growth

[[record]]
compound = "Nc1ccc(N)c2c1C(=O)c1cccc([N+](=O)[O-])c1C2=O"
result = "-3.34% (active)"

[[record]]
compound = "CCNc1nc(-c2ccc(Cl)c(OC)c2)c(-c2ccnc(NCCNS(=O)(=O)c3ccc(Cl)cc3)n2)s1"
result = "17.1% (inactive)"

[[record]]
compound = "CCC(=C(c1ccc(OCCN(CC)CC)cc1)c1ccc(OCCN(CC)CC)cc1)c1ccc(Cl)cc1"
result = "-81.4% (active)"

[[record]]
compound = "Cc1cccc(CN(Nc2ccccc2)c2ccccc2)n1"
result = "101% (inactive)"

[[record]]
compound = "CCOC(=O)c1c(C)c2c(n1Cc1ccccc1)CSc1cc(C#N)c(=O)[nH]c1-2"
result = "67% [100 µM] (inactive)"


* * *

Quick reference for growth among some molecules
- Tested on: SK-MEL-28 melanoma
- PROTOCOL: NCI-60 one-dose screen, 48 h (100 = growth as untreated, 0 = no growth, -100 = all killed)
- TEST_CONDITIONS: 10 µM unless noted
About 83,000 compounds went through this panel and 20% of them were active in at least one assay; those are over-represented in the sample as a whole.
OBSERVATION_TYPE: growth (%)

[[record]]
molecule = "COc1ccccc1NC(=O)n1c(=O)cc(C)c2ccc(O)cc21"
observation_type = "growth"
unit_of_measure = "%"
recorded_number = 113

[[record]]
molecule = "Cc1ccc(-c2nn(CC(=O)N3CCOCC3)c(N)c2C#N)cc1"
observation_type = "growth"
unit_of_measure = "%"
recorded_number = 102

[[record]]
molecule = "Cc1csc(Nc2nc(-c3cccc(Cl)c3)nc(C(Cl)(Cl)Cl)n2)n1"
observation_type = "growth"
unit_of_measure = "%"
recorded_number = 39.5

[[record]]
molecule = "CCN(CC)CCCC(Nc1c2ccc(Cl)cc2nc2ccc(OC)cc12)c1ccncc1 (stereo not given)"
observation_type = "growth"
unit_of_measure = "%"
recorded_number = 85.6

[[record]]
molecule = "CCN1C(=O)N(CC)C2C1NC(=S)N2/N=C/C=C/c1ccccc1 (stereo not given)"
observation_type = "growth"
unit_of_measure = "%"
recorded_number = 61

[[record]]
molecule = "CCCS(=O)(=O)Nc1cccc(Nc2ncnc3cc(NC(=O)CCl)ccc23)c1Cl"
observation_type = "growth"
unit_of_measure = "%"
recorded_number = -22.8

[[record]]
molecule = "CCCCCCCCCCCCCC[n+]1ccc2c(C)c3c(c(C)c2c1)c1cc(O)ccc1n3CC"
observation_type = "growth"
unit_of_measure = "%"
recorded_number = -93.9

[[record]]
molecule = "Cc1nc2ccccc2c(/C=C/c2ccc(Cl)cc2)c1C(=O)/C=C/c1ccccc1"
observation_type = "growth"
unit_of_measure = "%"
recorded_number = 8.62

[[record]]
molecule = "O=c1c2cccc3c(N4CCOCC4)ccc(c32)c2nc3ccccc3n12"
observation_type = "growth"
unit_of_measure = "%"
recorded_number = 107

[[record]]
molecule = "COC(=O)c1nc(-c2ccccc2)oc1S(=O)(=O)NCC(c1ccc(Cl)cc1)N1CCCCC1 (stereo not given)"
observation_type = "growth"
unit_of_measure = "%"
recorded_number = 99.7


* * *

- System: HCC-2998 colon
- PROTOCOL: NCI-60 one-dose screen, 48 h (100 = growth as untreated, 0 = no growth, -100 = all killed)
- TEST_CONDITIONS: 10 µM unless noted
Compounds without any hit were thinned out: in the full panel of roughly 83,000, 20% have a hit.
We use 60% as the dividing line for growth: on or above the line is True, below is False.

[[record]]
compound = "O=C(NC1CCCCCC1)c1ccc2c(=O)n3c(nc2c1)CCCCC3"
label = "True"

[[record]]
compound = "NCCCCCNc1noc(Cc2c[nH]c3cc(Br)ccc23)n1"
label = "True"

[[record]]
compound = "[2H]C([2H])([2H])Oc1ccc(/C=C/C(=O)/C=C(O)/C=C/c2ccc(OC([2H])([2H])[2H])c(OC([2H])([2H])[2H])c2)cc1OC([2H])([2H])[2H]"
label = "True"

[[record]]
compound = "COc1cccc(/C=C2\\CCc3ccccc3C2=O)c1"
label = "True"

[[record]]
compound = "C#CC#CC#CC#CC#CC#CC#CC#CC[C@@H]1OC[C@H](COC(=O)O[C@@H](C(=O)O[C@H]2C[C@@]3(O)[C@@H](OC(=O)c4ccccc4)[C@@H]4[C@]5(OC(C)=O)CO[C@@H]5C[C@H](O)[C@@]4(C)C(=O)[C@H](OC(C)=O)C(=C2C)C3(C)C)[C@@H](NC(=O)c2ccccc2)c2ccccc2)O1"
label = "False"

[[record]]
compound = "Cc1ccc(OCCOCCOCCOCCOc2ccc(C)n(O)c2=S)c(=S)n1O"
label = "False"

[[record]]
compound = "CC1=NN(c2cccc(Cl)c2)C(=O)/C1=C\\C=C\\c1ccccc1"
label = "False"

[[record]]
compound = "COc1cc2c(c(OC)c1OC)CCC(c1cccc(C(=O)Nc3ccc([N+](=O)[O-])cc3)c1)O2 (stereo not drawn)"
label = "True"

[[record]]
compound = "O=C(Nc1ncc(Cc2ccc(Cl)cc2)s1)c1ccc2c(c1)OCCO2"
label = "False"

[[record]]
compound = "COc1ccc(CNc2c3ccccc3nc3ccccc23)cc1OC"
label = "False"

[[record]]
compound = "C=C1/C(=C\\C=C2/CCC[C@]3(C)[C@@H]([C@H](C)CCCC(C)(C)O)CC[C@@H]23)C[C@@H](OC(=O)CBr)C[C@@H]1O"
label = "True"

[[record]]
compound = "O=C(OCc1ccc2c(Br)cc(Br)c(O)c2n1)N1CCN(C(=O)c2cc3ccccc3[nH]2)CC1"
label = "False"

[[record]]
compound = "CCCCC1=C(Br)C(=O)c2ncccc2C1=O"
label = "True"

[[record]]
compound = "Cn1ncc(CC(=O)O)c1-n1nnc2cc(Cl)ccc2c1=O"
label = "True"

[[record]]
compound = "Oc1cccc(-c2nc(-c3n[nH]c(=S)n3-c3ccccc3)cc3c2[nH]c2ccccc23)c1"
label = "False"

[[record]]
compound = "COc1cc2c(c(OC)c1OC)CCC(c1cccc(C(=O)Nc3ccccc3Br)c1)O2 (stereo not drawn)"
label = "True"

[[record]]
compound = "O=C(O)COc1ccc(F)cc1"
label = "True"


* * *

- System: DU-145 prostate
- PROTOCOL: NCI-60 one-dose screen, 48 h
- TEST_CONDITIONS: 10 µM unless noted
This is part of a sample that, as a whole, favours compounds with a hit. Of some 83,000 tested, about 20% had one in any assay. The source made the active and inactive calls. The calls were made as follows: active = growth percent below 10; inactive = the rest.
Classes used: yes = active, no = inactive

[[record]]
compound = "O=C1c2c(c3c4cccnc4[nH]c3c3ccc4ccccc4c23)C(=O)N1O"
label = "no"

[[record]]
compound = "COc1cc2c(c(OC)c1OC)CCC(c1cccc(C(=O)Nc3ccccc3Br)c1)O2 (stereo not drawn)"
label = "no"

[[record]]
compound = "COc1c(O[C@@H]2OC(CO)[C@H](O)[C@H](O)C2O)cc2oc3cc(O)c(CC=C(C)C)c(O)c3c(=O)c2c1CC=C(C)C (stereo partly drawn)"
label = "no"

[[record]]
compound = "Nc1nc(N)c2c(n1)NC(c1cccc(Nc3ccnc4cc(C(F)(F)F)ccc34)c1)CC(c1ccc(Cl)cc1)=N2 (stereo not drawn)"
label = "no"

[[record]]
compound = "Nc1ncc(-c2ccc3ncnc(N4CCc5cc(F)c(Cl)cc54)c3c2)cc1C(F)(F)F"
label = "no"

[[record]]
compound = "C=C(CNCCc1ccc(O)cc1)[C@@H]1CC[C@]2(CO)CC[C@]3(C)[C@H](CC[C@@H]4[C@@]5(C)CCC(N)C(C)(C)[C@@H]5CC[C@]43C)[C@@H]12 (stereo partly drawn)"
label = "yes"

[[record]]
compound = "COc1cccc2cc(N(C)c3ncnc4ccccc34)ccc12"
label = "no"

[[record]]
compound = "C#Cc1c(I)n(C2OC(CO[Si](C)(C)C(C)(C)C)C3OC(C)(C)OC32)c(=O)[nH]c1=O (stereo not drawn)"
label = "no"

[[record]]
compound = "O=C(/C=C\\c1ccc(O)c(O)c1)c1ccccc1O"
label = "no"

[[record]]
compound = "Cc1ccc(S(=O)(=O)c2nc(-c3ccccc3)oc2S(C)=O)cc1 (stereo not drawn)"
label = "no"

[[record]]
compound = "COC(=O)c1nc(-c2ccccc2)oc1S(=O)(=O)NCC(c1ccc(Cl)cc1)N1CCCCC1 (stereo not drawn)"
label = "no"

[[record]]
compound = "CCOC(=O)C#Cc1c(CC(=O)OCC)nnn1[C@H]1O[C@@H](CO)[C@@H]2OC(C)(C)O[C@@H]21"
label = "no"

[[record]]
compound = "O=C(Nc1ncc(Cc2ccccc2Cl)s1)c1ccc2c(c1)OCCO2"
label = "yes"

[[record]]
compound = "COc1cc2c(c(OC)c1OC)CCC(c1cccc(C(=O)Nc3ccc([N+](=O)[O-])cc3)c1)O2 (stereo not drawn)"
label = "no"

[[record]]
compound = "CC(C)(C)c1ccc(C(=O)Nc2sc3c(c2C#N)CCC(=O)C3)cc1"
label = "no"

[[record]]
compound = "O=C(Nc1ccccc1)Nc1ccccc1CNc1nc(Nc2ccc(OCCN3CCCC3)cc2)ncc1Cl"
label = "no"

[[record]]
compound = "Cn1cc(-c2nc(-c3c[nH]c4ccncc34)cs2)c2cc(F)ccc21"
label = "yes"

[[record]]
compound = "O=C(Nc1ccc2c(c1)-c1ccccc1C2)C1CC(=O)N(c2ccc3c(c2)OCO3)C1 (stereo not drawn)"
label = "no"

[[record]]
compound = "CCCCC#Cc1c(I)n(C2OC(CO[Si](C)(C)C(C)(C)C)C3OC(C)(C)OC32)c(=O)[nH]c1=O (stereo not drawn)"
label = "no"

[[record]]
compound = "O=C1NCCS(=O)(=O)/C1=C\\C=C\\c1cccc(C(F)(F)F)c1"
label = "no"

[[record]]
compound = "CCOC(=O)c1cc(C(=O)c2cc(OC)cc(OC)c2)n2ncccc12"
label = "no"

[[record]]
compound = "O=C(/C=C/C12c3ccccc3C(c3ccccc31)C1C(=O)NC(=O)C12)c1cccs1 (stereo not drawn)"
label = "no"

[[record]]
compound = "CC/C(=C(/c1ccc(Cl)cc1)c1ccc(OCCN(CC)CC)cc1)c1ccc(OC)cc1"
label = "no"

[[record]]
compound = "Cn1nc(-c2ccc(Cl)cc2)nc2c(=O)n(C)c(=O)nc1-2"
label = "yes"

[[record]]
compound = "[2H]C([2H])([2H])Oc1c(F)cccc1/C=C/C(=O)/C=C(O)/C=C/c1cccc(F)c1OC([2H])([2H])[2H]"
label = "no"

[[record]]
compound = "COc1cc(C2CC(c3cccc(Nc4ccncc4)c3)=Nc3c(N)ncnc3N2)cc(OC)c1OC (stereo not drawn)"
label = "no"

[[record]]
compound = "CCOc1ccccc1NC(=O)CCC(=O)OC"
label = "no"

[[record]]
compound = "O=c1n(C2OC(CO)C(O)C2O)ccc2nccn12 (stereo not drawn)"
label = "no"

[[record]]
compound = "COC(CCP(=O)(c1ccccc1)c1ccccc1)(C(=O)c1ccccc1)c1ccccc1 (stereo not drawn)"
label = "no"

[[record]]
compound = "Cn1ccnc1C(=O)/C=C/c1ccc(C(=O)Nc2c(F)c(F)c(F)c(F)c2F)cc1"
label = "no"

[[record]]
compound = "O=C(/C=C/c1cccc([N+](=O)[O-])c1)c1ccc(Nc2nc(Nc3ccc(F)cc3)nc(Nc3ccc(Cl)cc3)n2)cc1"
label = "no"

[[record]]
compound = "CCOC(=O)c1cnc2sc(-c3ccc(OC)cc3)nc2c1Cl"
label = "no"

[[record]]
compound = "Clc1ccc2c(NCCCn3cnc4c(N5CCCC5)nc(Cl)nc43)ccnc2c1"
label = "no"

[[record]]
compound = "COc1cccc(C(=O)Nc2cccc(NC(=O)c3ccccn3)c2)c1"
label = "no"

[[record]]
compound = "O=C(OCC(O)C(=O)NC12CC3CC(CC(C3)C1)C2)c1cccc(Br)c1 (stereo not drawn)"
label = "no"

[[record]]
compound = "CCOC(=O)c1c2c(n3ccc(NC(=O)CCN4CCCC4)cc13)C(=O)c1ncccc1C2=O"
label = "yes"

[[record]]
compound = "CCOC(=O)/C(=C/c1ccc([N+](=O)[O-])cc1)C(=O)c1ccccc1"
label = "no"

[[record]]
compound = "Cc1nc2ccccc2c(/C=C/c2ccc(Br)cc2)c1C(=O)/C=C/c1ccccc1"
label = "yes"

